Where do these numbers come from? They come from patent US9415047B2.

- Tested on: NA constricted rabbit aorta
- EXPERIMENT: Relaxing effects on vascular smooth muscle constricted by noradrenaline (NA) in vitro
- CONDITION SET: Oryctolagus cuniculus; relaxation of rabbit aorta constricted by noradrenaline (10^−5 mol/L); mean±SEM, n=5
OBSERVABLE: EC50 (µM)

# annotated cases, reported EC50 shown
Fc1ccc2c(C3CCN(CCCn4nnc5ccccc54)CC3)noc2c1
0.0309
COc1ccc2nnn(CCCN3CCC(c4nsc5cc(F)ccc45)CC3)c2c1
64.6
Cc1ccc2c(C3CCN(CCCn4nnc5ccccc54)CC3)noc2c1
5.5
COc1ccc2c(C3CCN(CCCn4nnc5ccccc54)CC3)noc2c1
9.12
COc1ccc2nnn(OCCN3CCC(c4noc5ccccc45)CC3)c2c1
49

A: COc1ccc2nnn(CCCN3CCC(c4n[nH]c5cc(F)ccc45)CC3)c2c1
B: Clc1cccc(C2CCN(CCCCn3cnc4ccccc43)CC2)c1
Request: Which shows the larger EC50 value: A or B ? Answer format: the label of the selected item.
Result: A
